test: Pharmacokinetic parameters after oral gavage in Sprague Dawley rats; assay type: in vivo, male Sprague Dawley rats; conditions: male, Sprague Dawley, plasma, rat, 10 mg/kg
ATTRIBUTE_MEASURED: AUC(0-inf)

INSERT INTO measurements (molecule, recorded_value) VALUES
  ('CC(C)(Sc1cc(C(C)(C)C)c(O)c(C(C)(C)C)c1)Sc1cc(C(C)(C)C)c(O)c(C(C)(C)C)c1', '859 ng·h/mL');

* * *

experiment: Pharmacokinetic parameters after oral gavage in Sprague Dawley rats; format: in vivo, male Sprague Dawley rats; conditions: male, Sprague Dawley, plasma, rat, 10 mg/kg, read-out: AUC0-24
ATTRIBUTE_MEASURED: AUC(0-t) (ng·h/mL)

INSERT INTO results (molecule, recorded_value) VALUES
  ('CC(C)(Sc1cc(C(C)(C)C)c(O)c(C(C)(C)C)c1)Sc1cc(C(C)(C)C)c(O)c(C(C)(C)C)c1', 492);
